Below: a set of entries, each annotated with reported IC50.
# tested system: T1, biotinylated synthetic human Amyloid beta 1-42 peptide (human, UniProt P05067 672-713, biotinylated (N-terminal biotin in Example 4))
# T1 construct: domain: Amyloid beta 1-42 peptide; Numbers 1-42 count on the Amyloid beta peptide, not on APP; also called biotinylated human Amyloid beta 1-42; N-terminal biotin Abeta 1-42
# T1 sequence (P05067 672-713 limits assumed): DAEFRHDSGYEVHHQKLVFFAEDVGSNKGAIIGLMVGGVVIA
# procedure text: HTRF epitope competition; purified scFv titrated; competitor Abet0144-GL IgG1-TM
readout label: IC50

>>> value_observed("Abet0319 scFv (scFv, V domains shown, not shown: small tags and cut ends, Purified scFv expressed in E. coli) VH: EVQLLESGGGLVQPGGSLRLSCAASVSVYNKDTMWWVRQAPGKGLEWVSVIGSSGGTTVYADSVKGRFTISRDNSKNTLYLQMNSLRAEDTAVYYCAREWMDHSRPYYYYGMDVWGQGTLVTVSS VL: SYELTQPPSVSVSPGQTASITCSGHNIMDKWVSWYQQKPGRSPALVIYRDDKRPSGIPERFSASNSGHTATLTISGTQATDEADYYCSSQDTVTRVFGGGTKLTVL")
"0.68 nM"
>>> value_observed("Abet0343 scFv (scFv, V domains shown, not shown: small tags and cut ends, Purified scFv expressed in E. coli) VH: EVQLLESGGGLVQPGGSLRLSCAASGFNFNHQVMWWVRQAPGKGLEWVSVIGKTNENIAYADSVKGRFTISRDNSKNTLYLQMNSLRAEDTAVYYCAREWMDHSRPYYYYGMDVWGQGTLVTVSS VL: QSVLTQPPSVSVSPGQTASITCSGHNLEDKFASWYQQKSGQSPVLVIYRDDKRPSGIPERFSASNSGHTATLTISGTQATDEADYYCSSQDTVTRVFGGGTKLTVL")
"0.48 nM"
>>> value_observed("Abet0321b scFv (scFv, V domains shown, not shown: small tags and cut ends, Purified scFv expressed in E. coli) VH: EVQLLESGGGLVQPGGSLRLSCAASAYHSNHDPMWWVRQAPGKGLEWVSVIGSSGGTTAYADSVKGRFTISRDNSKNTLYLQMNSLRAEDTAVYYCAREWMDHSRPYYYYGMDVWGQGTLVTVSS VL: SYELTQPPSVSVSPGQTASITCSGHNLEDKFASWYQQKPGQSPVLIIYRDDKRPSGIPERFSASNSGHTATLTISGTQATDEADYYCSSQDTVTRVFGGGTKLTVL")
"0.73 nM"
>>> value_observed("Abet0369 scFv (scFv, V domains shown, not shown: small tags and cut ends, Purified scFv expressed in E. coli) VH: EVQLLESGGGLVQPGGSLRLSCAASSFQISKNTMWWVRRAPGKGLEWVSVIGKDETRFNYADSVKGRFTISRDNSKNTLYLQMNSLRAEDTAVYYCAREWMDHSRPYYYYGMDVWGQGTLVTVSS VL: SYGLTQPPSVSVSPGQTASITCSGRNIGDSWVAWYQQKPGQSPVLVIYRDDKRPSGIPERFSASNSGHTATLTISGTQATDEADYYCSSQDTVTRVFGGGTKLTVL")
"0.36 nM"
